Where do these numbers come from? They come from patent US3932423A.

- assayProtocol: Acute Toxicity
- Set-up: species or system mice, female
- conditionInfo: mouse, in vivo, po; lethal rate within two days
reportedEndpoint: LD50 at 48 h

CN1C(=O)C2CSC3(CCN(CCCC(=O)c4ccc(F)cc4)CC3)N2C1=O (centres unmarked) : > 1000 mg/kg

Continue with the molecule presented below.
### Prompt What value of LD50 at 48 h has been recorded for this entry: NC(=O)C1(N2CCCCC2)CCN(CCCC(=O)c2ccc(F)cc2)CC1 [Floropipamide]
### Response > 1000 mg/kg
